# tested-on: T1, SF6 small terminase DBD K26A (Bacillus phage SF6, UniProt P68928 1-68, K26A)
# T1 sequence: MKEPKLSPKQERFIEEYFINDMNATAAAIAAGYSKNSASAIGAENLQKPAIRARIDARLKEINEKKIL
# protocol-notes: SPR; McGhee-von Hippel, site size 3 bp; 20 mM HEPES, 150 mM KCl (300 mM in second ReDCaT), pH 7.0, +0.05% Tween 20 for SPR; ReDCaT 20 uM protein; AUC 20 C; NMR 20 mM MES, 150 mM KCl, pH 6.0, 25 C
# experimental-context: protein: recombinant; tags: C-terminal 3C site-His tag, cleaved; label: 5'-biotin strand 1 (SPR); none in NMR; blunt
property: Kd (mM)
Numbers only, in mM.

Prompt: # Kd lookup, item 20-bp linker dsDNA (dsDNA) DNA 1: GCAGGAGGACGTAGGGTAGG DNA 2: CCTACCCTACGTCCTCCTGC
Response: 3.08
